Data provenance is patent US20250214969A1.

Experimental system: truncated His-MBP-Tev-KLHDC2 (residues 1-363) (Homo sapiens, UniProt Q9Y2U9)
Construct: truncated His -MBP-Tev-KLHDC2 (residues 1-363) purified from E. coli; made in house; host or cells: E. coli
Sequence (Q9Y2U9 1-363): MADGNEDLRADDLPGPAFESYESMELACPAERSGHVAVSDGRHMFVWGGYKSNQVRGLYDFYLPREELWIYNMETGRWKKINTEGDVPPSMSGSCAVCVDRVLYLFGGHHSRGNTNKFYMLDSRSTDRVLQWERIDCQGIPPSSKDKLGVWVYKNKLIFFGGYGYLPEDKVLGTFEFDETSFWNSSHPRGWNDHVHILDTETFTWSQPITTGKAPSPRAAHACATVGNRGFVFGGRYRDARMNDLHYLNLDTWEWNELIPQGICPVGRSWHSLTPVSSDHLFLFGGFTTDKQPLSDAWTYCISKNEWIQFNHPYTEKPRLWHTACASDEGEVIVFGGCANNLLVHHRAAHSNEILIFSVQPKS
Run description: KLHDC2 HTRF binding assay
Cond: 1 nM KLHDC2 (residues 1-363), fluorescein-labeled diglycine peptide probe
Endpoint: IC50

O=C(O)Cn1cc(NC(=O)COc2ccccc2Cl)ccc1=O > 5000 nM
O=C(O)Cn1cc(N2CCc3cccc(-c4cccnc4)c3C2=O)ccc1=O > 5000 nM
CC(C)(C)OC(=O)NCCCCCCc1ccc(C(=O)Nc2ccc(=O)n(CC(=O)O)c2)cc1-c1cccnc1 50 to 500 nM
COc1cc(-c2ccccn2)ccc1C(=O)Nc1ccc(=O)n(CC(=O)O)c1 500 to 5000 nM

Shift focus to the following entry.
INPUT: API: value(readout=IC50, system=truncated His-MBP-Tev-KLHDC2 (residues 1-363) (Homo sapiens, UniProt Q9Y2U9)) for record `NCCCCCCc1cncc(-c2cccc(C(=O)Nc3ccc(=O)n(CC(=O)O)c3)c2)c1`
OUTPUT: 50 to 500 nM
